target: SARS-CoV-2 spike protein (SARS-CoV-2, UniProt P0DTC2 14-1208)
Property: kon; scope: individual binders
Write down the numeric answer in M⁻¹ s⁻¹ and omit the unit.

Solved entries (count: 5):
BINDER	kon / M⁻¹ s⁻¹
antibody 458 (antibody, V domains shown) VH: QVQLVESGGGVVQPGRSLRLSCAASEFTFATYAMHWVRQAPGKGLEWVALISQDGSNKHYADSVKGRFTISRDNSKNTLYLQMNSLRAEGTAIYYCARESLEAAGPPFDYWGQGTLVTVSS VL: SYELTQPPSVSVSPGQTATIICSGDKLGEKYASWYQQKPGQSPALVIYQDRKRPSGIPERFSGSNSGNTATLTISGTQAMDEADYYCQAWDSSNSVVFGGGTKLTVP	266000
antibody 455 (antibody, V domains shown) VH: QVQLVQSGAEVKKPGSSVKVSCKASGGTFSSYAISWVRQAPGQGLEWMGRIIPILGIANYAQKFQGRVTITADKSTSTAYMELSSLRSEDTAVYYCARDSIVVPAAIISGYYYYGMDVWGQGTTVTVSS VL: QSVLTQPPSVSAAPGQKVTISCSGSSSNIGNNYVSWYQQLPGTAPKLLIYDNNKRPSGIPDRFSGSKSGTSATLGITGLQTGDEADYYCGTWDSSLSAGRVFGGGTKLTVL	107000
antibody 402 (antibody, V domains shown) VH: QVQLVQSGAEVKKPGASVKVSCKVSGYTLTELSMHWVRQAPGKGLEWMGGFDPEDVETIYAQKFQGRVTMTEDTSTDTAYMELSSLRSEDTAVYYCATGVAVVGTSHSYYYYYGMDVWGQGTTVTVSS VL: DIQMTQSPSSLSASVGDRVTITCRASQGISNYLAWYQQKPGKVPKLLIYAASTLQSGVPSRFSGSGSGTDFTLTISSLQPEDVATYYCQKYNSAPFTFGPGTKVDIK	30400
antibody 397 (antibody, V domains shown) VH: QVQLVESGGGVVQPGRSLRLSCAASGFTFSSYGMHWVRQAPGKGLESVAVISYDGSNKYYADSVKGRFTISRDNSKNTLYLQMNSLRAEDTAVYYCAKEGQWELQGNAFDIWGQGTMVTVSS VL: SYELTQPPSVSVSPGQTARITCSGDALPKQYAYWYQQKPGQAPVLVIYKDSERPSGIPERFSGSSSGTTVTLTISGVQAEDEADYYCQSGDSSGTYRVFGGGTKLTVL	591000
antibody 468 (antibody, V domains shown) VH: QVQLVESGGGVVQPGRSLRLSCAASGFTFSIYAMHWVRQAPGKGLEWVAVISYDGSNKYYADSVKGRFTISRDNSKNTLYLQMNSLRAEDTAVYYCAGSLPAGSYYYYYGMDVWGQGTTVTVSS VL: SYELTQPPSVSVSPGQTARITCSGDALPKQYAYWYQQKPGQAPVLVIYKDSERPSGIPERFSGSSSGTTVTLTISGVQAEDEADYYCQSADNSGTYVLFGGGTKLTVL	79200

Returns the measured kon for the input binder. Input: antibody 399 (antibody, V domains shown) VH: QVQLVQSGAEVKKPGASVKVSCKASGYTFTSYGISWVRQAPGQGLEWMGWISAYNGNTNYAQKLQGRVTMTTDTSTSTAYMELRSLRSDDTAVYYCARDSGYDWAGGHYYYYGMDVWGQGTTVTVSS VL: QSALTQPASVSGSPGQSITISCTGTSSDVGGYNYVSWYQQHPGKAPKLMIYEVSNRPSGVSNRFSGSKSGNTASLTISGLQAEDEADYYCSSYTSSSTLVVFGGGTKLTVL
31700

Returns the measured kon for the input binder. Input: antibody 453 (antibody, V domains shown) VH: QVQLVESGGGVVQPGRSLRLSCAASGFTFSSYAMYWVRQAPGKGLEWVAVISYDGSNKYYADSVKGRFTISRDNSKNTLYLQMNSLRAEDTAVYYCARDRPHYYGSGRKILNLYGMDVWGQGTTVTVSS VL: DIQLTQSPSFLSASVGDRVTITCRASQGISSYLAWYQQKPGKAPKLLIYAASTLQSGVPSSFSGSGSGTEFTLTISSLQPEDFATYYCQQLNSYPPFTFGPGTKVDIK
95600

Returns the measured kon for the input binder. Input: antibody 391 (antibody, V domains shown) VH: EVQLVESGGGLVQPGGSLRLSCAASGFTFSSYWMHWVRQAPGKGLVWVSRINSDGSSTSYADSVKGRFTISRDNAKNTLYLQMNSLRAEDTAVYYCALGPLDIVGSYYYYGMDVWGQGTTVTVSS VL: NFMLTQPHSVSESPGKTVTISCTGSSGSIASNYVQWYQQRPGSAPTTVIYEDNQRPSGVPDRFSGSIDSSSNSASLTISGLKTEDEADYYCQSYDSSNQDVVFGGGTKLTVL
27000

Returns the measured kon for the input binder. Input: antibody 440 (antibody, V domains shown) VH: EVQLLESGGGLVQPGGSLRLSCAASGFTFSSYAMSWVRQAPGKGLEWVSAISGSGVNTYHADSVKGRFTISRDNSRNTLYLQMSSLTAEDTAAYYCAKDFEAASGAYYYYGMDVWGQGTTVTVSS VL: SYELTQPPSVSVSPGQTARITCSGDALPDQYAYWYQQKPGQAPVVVIYKDRERPSGIPERFSGSNSGTTVTLTISGVQAEDEADYYCQSADSSATYVVFGGGTKLTVL
36700

Returns the measured kon for the input binder. Input: antibody 394 (antibody, V domains shown) VH: QVQLVQSGAEVKKPGASVKVSCKASGYTFTGYYMHWVRQAPGQGLEWMGWINPNNGGTNSAQKFQGRVTMTRDTSISTAYMELNRLRSDDTAVYYCARDITTTAGTDYYYGMDVWGQGTTVTVSS VL: SYELTQPPSVSVSPGQTARITCSGDALPKQYAYWYQQKPGQAPVLVICKDSERPSGIPERFSGSSSGTTVTLTISGVQAEDEADYYCQSADSSGTYIVFGTGTKVTVL
26600

Reference source for all entries: patent US20210292393A1
